Let's look at some compounds and their measured melting point.

Consider the worked cases shown below.
{"columns": ["Chemical smiles", "melting point"],
 "data": [
  ["Fc1cnc2[nH]cc(-c3csc(-c4c[nH]c5ncccc45)n3)c2c1", "373 to 374 °C"],
  ["Cn1cc(-c2nc(-c3cn(C)c4c(Cl)nccc34)cs2)c2ccccc21", "265 to 266 °C"],
  ["Cn1cc(-c2csc(-c3cn(C)c4ncccc34)n2)c2cc(Br)cnc21", "308 °C"],
  ["Clc1nccc2c(-c3csc(-c4c[nH]c5ccccc45)n3)c[nH]c12", "271 to 272 °C"]
]}

Let us examine a further case.
Data request: Query melting point for "Cn1cc(-c2nc(-c3c[nH]c4c(Cl)nccc34)cs2)c2cc(Br)ccc21"
Data returned: 374 to 375 °C

###

Let's look at some molecules and their measured melting point.

Consider the worked cases shown below.
{"columns": ["Molecule", "Result"],
 "data": [
  ["Cn1cc(-c2nc(-c3c[nH]c4c(Cl)nccc34)cs2)c2cc(F)ccc21", "337 to 338 °C"],
  ["Cn1cc(C2(c3c[nH]c4ncccc34)CSC=N2)c2cccnc21 (stereo not drawn)", "303 to 304 °C"],
  ["Cn1cc(-c2nc(-c3c[nH]c4ncccc34)cs2)c2cccnc21", "278 to 279 °C"],
  ["Cn1cc(-c2nc(-c3cn(C)c4c(Cl)nccc34)cs2)c2cc(Br)ccc21", "249 to 250 °C"],
  ["Cn1cc(-c2nc(-c3c[nH]c4ncc(F)cc34)cs2)c2cccnc21", "316 °C"]
]}

Data request: Query melting point for "Cn1cc(-c2nc(-c3c[nH]c4ncc(Br)cc34)cs2)c2cccnc21"
Data returned: 311 °C

Data request: Query melting point for "COc1ccc2c(c1)c(-c1nc(-c3cn(C)c4c(Cl)nccc34)cs1)cn2C"
Data returned: 231 to 232 °C

Data request: Query melting point for "Cn1cc(-c2csc(-c3c[nH]c4ncccc34)n2)c2cc(F)cnc21"
Data returned: 295 to 296 °C

Data request: Query melting point for "Cn1cc(-c2csc(-c3cn(C(=O)OC(C)(C)C)c4ccccc34)n2)c2ccnc(Cl)c21"
Data returned: 279 to 280 °C

###

Let's look at some compounds and their measured melting point.

Consider the worked cases shown below.
{"columns": ["Chemical smiles", "melting point"],
 "data": [
  ["CC(C)(C)OC(=O)n1cc(-c2nc(-c3c[nH]c4c(Cl)nccc34)cs2)c2cc(Br)ccc21", "241 to 242 °C"],
  ["Cn1cc(-c2csc(-c3c[nH]c4ccc(Br)cc34)n2)c2ccnc(Cl)c21", "273 to 274 °C"],
  ["Fc1ccc2[nH]cc(-c3nc(-c4c[nH]c5c(Cl)nccc45)cs3)c2c1", "281 to 282 °C"]
]}

Data request: Query melting point for "c1cnc2[nH]cc(-c3csc(-c4c[nH]c5ncccc45)n3)c2c1"
Data returned: 346 to 347 °C

Data request: Query melting point for "CC(C)(C)OC(=O)n1cc(-c2nc(-c3c[nH]c4c(Cl)nccc34)cs2)c2ccccc21"
Data returned: 225 to 226 °C

Data request: Query melting point for "Cn1cc(-c2csc(-c3cn(C(=O)OC(C)(C)C)c4ccc(Br)cc34)n2)c2ccnc(Cl)c21"
Data returned: 257 °C

Data request: Query melting point for "COc1ccc2c(c1)c(-c1nc(-c3c[nH]c4c(Cl)nccc34)cs1)cn2C(=O)OC(C)(C)C"
Data returned: 312 to 313 °C
